Source of measurements: ChEMBL document CHEMBL3507680

Assay: Human HepG2 cell viability assay in 384 well format
Format: toxicity, cell-based
Set-up: dose 125 nL, time 70.5 hour; concentration not given beside the values
Conditions: HepG2 cells, read-out: Inhibition
Property name: cytotoxicity at 70.5 h (%)
Just the number please, in %, no unit attached.

Find the recorded cytotoxicity at 70.5 h belonging to `Cc1cc(C)c2nc(CN3CCC(N4CCOC4=O)CC3)cc(O)c2c1` and report it. 2.37

How about this molecule: O=C(c1cnco1)N1CCCC(Cc2cccc3ncccc23)C1 (configuration not stated) -0.138

How about this molecule: COCCNC(=O)N1CCOCC1c1c(C)nn(C)c1C (configuration not stated) -1.43

How about this molecule: O=C1NC2(CCc3ccccc31)CCN(C(=O)c1cccnc1)C2 (configuration not stated) -13

How about this molecule: `Cc1nc(CSCCC(=O)NCc2cccnc2N(C)C)cs1` -13.6

How about this molecule: COc1ccc(Cc2noc(-c3ccc(NC(C)CO)nc3)n2)cc1 (configuration not stated) 3.07

How about this molecule: NC(=O)c1c(NC(=O)C2CCCO2)sc2c1CCc1ccccc1-2 (configuration not stated) -3.81

---

Test: Human HepG2 cell viability assay in 384 well format
Assay type: toxicity, cell-based
Design: dose 125 nL, time 70.5 hour; concentration not given beside the values
Conditions: HepG2 cells, read-out: Inhibition
Property name: cytotoxicity at 70.5 h

Find the recorded cytotoxicity at 70.5 h belonging to Nc1cc(CCC2CN(Cc3cccc(C(=O)O)c3)CCO2)ccn1 (centres undefined) and report it. -7.61%

How about this compound: `CC(C)(CNC(=O)Nc1nccs1)N1CCOCC1` -6.21%

How about this compound: `O=C(CNc1cc(-n2cnnn2)ccc1F)Nc1ccccc1Cl` -114%

How about this compound: CC(=O)N1CCC(c2cncc(N3CCC(O)C3)n2)CC1 (centres undefined) -2.45%

How about this compound: Cc1cccc(CNC(=O)N(CCCO)C2CCc3ccccc32)n1 (centres undefined) -1.88%

How about this compound: O=C(Cc1ccsc1)N1CCCC(CNS(=O)(=O)Cc2ccccc2)C1 (centres undefined) -9.34%

How about this compound: `O=C(CCc1ccccn1)N1CCCN(C(=O)CC2CCCC2)CC1` 4.27%

How about this compound: `Cn1nnc2cc(C(=O)NS(=O)(=O)Cc3ccc(F)cc3)ccc21` -12.6%

How about this compound: Cc1c[nH]c(CN2CCOC(c3ccc(F)cc3)C2)c(C)c1=O (centres undefined) -3.86%

How about this compound: CCCc1nnc(NC(=O)NC(C)Cn2cccn2)s1 (centres undefined) -0.592%

How about this compound: `CCCn1cc(NC2CCSCC2)cn1` 2.92%

How about this compound: `Cc1nc(CCCNC(=O)c2c(F)cc(F)cc2F)n[nH]1` -7.17%

How about this compound: COCc1nc(C(=O)N2CCCCC2Cn2cccn2)cs1 (centres undefined) -7.2%

How about this compound: `CN(C)S(=O)(=O)N1CCN(Cc2ccnc(N3CCCC3)n2)CC1` -1.31%

How about this compound: `COc1ccccc1-n1cc(C(=O)NCCCn2ccnn2)cn1` -8.35%

How about this compound: `CC(=O)Nc1nc(C2CCN(C(=O)c3cccnc3)CC2)cs1` -15.5%

How about this compound: `CCOc1ncccc1CNCc1c(C(C)C)nn(C)c1N(C)C` 57.6%

How about this compound: `CCC1=N[C@@]2(CC[C@@H]3CN(CC(=O)N(C)C)C[C@@H]32)C(=O)N1CC(C)C` -6.91%

How about this compound: `CC(C)(C(=O)NCc1n[nH]c(=O)[nH]1)c1ccc(F)cc1` -2.39%

How about this compound: `Cc1nc(NC2CC(C)(C)NC(C)(C)C2)c2c(n1)c(C)nn2C` -18.4%

How about this compound: c1cncc(NCCCNC2CCSC2)c1 (centres undefined) -3.16%

How about this compound: COCC(=O)N1CCCC1c1nc(O)cc(C(C)C)n1 (centres undefined) 1.53%

How about this compound: `CC(C)Cc1nc(CN(C)CCOc2ccc(F)cc2)no1` -8.43%

How about this compound: `CCO[C@@H]1CO[C@@]2(CCCN(S(=O)(=O)c3cccnc3)C2)C1` -17.7%

---

Assay: Human HepG2 cell viability assay in 384 well format
Type: toxicity, cell-based
Parameters: dose 125 nL, time 70.5 hour; concentration not given beside the values
Settings: HepG2 cells, read-out: Inhibition
Property name: cytotoxicity at 70.5 h (%)
Just the number please, in %, no unit attached.

Find the recorded cytotoxicity at 70.5 h belonging to Cc1ccc(CC(=O)N2CCN(CC(O)C(C)(C)C)CC2)cn1 (centres undefined) and report it. 0.113

How about this molecule: `O=C1NC2(CCN(CC(=O)N3CCOCC3)CC2)Nc2ccccc21` -2.3

How about this molecule: `COc1cccn(Cc2nnc(-c3cccc(F)c3)o2)c1=O` -3.37

How about this molecule: `O=C(N1CCC2(CC1)[C@H](O)C[C@@H]2O)C1(c2ccccc2F)CC1` 1.59

How about this molecule: `CN(C)CCCN(C)c1nccc(N2CCN[C@H]3CS(=O)(=O)C[C@H]32)n1` 23.2

How about this molecule: COC1COC2(CCN(Cc3ccco3)CC2)C1 (centres undefined) -8.76

How about this molecule: CC(CNC(=O)c1cccnc1)Oc1ccc(F)cc1 (centres undefined) 8.38

How about this molecule: `Cc1cn(CC(=O)N(C)Cc2cccc3ncccc23)c(=O)[nH]c1=O` 6.82

How about this molecule: `Cc1ccoc1C(=O)N1C[C@H](OCc2cccnc2)[C@H]2OCCC[C@H]21` -15.2

How about this molecule: `CCn1cnnc1CNC(=O)N1CCN(Cc2ccccc2)CC1` -1.29

How about this molecule: `Cc1cccc(N2CCN(C(=O)CNCCn3cc(C)cn3)CC2)c1` 45

How about this molecule: `CCC1=N[C@@]2(CC[C@@H]3CN(C(=O)NCC4CCCCC4)C[C@@H]32)C(=O)N1` -2.69

How about this molecule: COCC(C)NC(=O)c1sccc1-n1cnnn1 (centres undefined) -2.58

How about this molecule: `Cc1cc(C)n(NC(=O)c2ccccc2F)c(=O)c1` 15.6

How about this molecule: Cc1nc(C)n(CC2CN(c3ncnc4[nH]ccc34)CCO2)n1 (centres undefined) 1.75

How about this molecule: `CC(=O)N1CCOC[C@H](Oc2ccc(C(F)(F)F)cc2)C1` 1.19

How about this molecule: COCC1CN(S(=O)(=O)N(C)C)Cc2ncn(CC3CC3)c21 (centres undefined) 2.72

How about this molecule: `CO[C@H]1CCN(C(=O)Cc2ccc(F)cc2)[C@H]1Cc1ccncc1` -8.07

How about this molecule: `O=C(NCCCn1ccnc1)Nc1ccn(CCc2ccccn2)n1` -5.67

---

Assay: Human HepG2 cell viability assay in 384 well format
Format: toxicity, cell-based
Parameters: dose 125 nL, time 70.5 hour; concentration not given beside the values
Conditions: HepG2 cells, read-out: Inhibition
Property name: cytotoxicity at 70.5 h (%)
Just the number please, in %, no unit attached.

Find the recorded cytotoxicity at 70.5 h belonging to `Cc1noc(C)c1CCC(=O)N1CCCN(CC(N)=O)CC1` and report it. -16.1

How about this compound: CC(=O)N1CCc2c(nc(N(C)C)nc2N(C)CCCC2CCCO2)C1 (stereo unspecified) 10.7

How about this compound: `CCc1noc(CN2CCC(c3ccnn3CCO)CC2)n1` -5.37

How about this compound: O=C(NC1CC(=O)N(C2CC2)C1)c1cccs1 (stereo unspecified) 11.1

How about this compound: `Cc1ccc(CN(CCN(C)C)C(=O)Cc2cn3ccccc3n2)o1` -3.69

How about this compound: c1ccc(N2CCC3(COCCN(c4ncccn4)C3)C2)nc1 (stereo unspecified) -10

How about this compound: `Cc1nn2cccnc2c1C(=O)NCc1ccnc(OCC2CC2)c1` -12.1

How about this compound: `Cc1ccc(C(=O)NS(=O)(=O)c2ccccc2Br)c(=O)[nH]1` -7.74

How about this compound: `Cc1cccc2cc(CN3CCC(N4CCCC4)CC3)c(=O)[nH]c12` -6.75

How about this compound: `O=C(Cn1ccc2ccccc21)NCc1ccc(C(=O)O)cc1` -10.6

How about this compound: `CSc1c[nH]nc1NS(=O)(=O)c1cc(F)ccc1Cl` -0.455

---

Assay: Human HepG2 cell viability assay in 384 well format
Assay type: toxicity, cell-based
Design: dose 125 nL, time 70.5 hour; concentration not given beside the values
Conditions: HepG2 cells, read-out: Inhibition
Give measured cytotoxicity at 70.5 h for each item. Keep answers brief.
Just the number please, in %, no unit attached.

Find the recorded cytotoxicity at 70.5 h belonging to `Cc1cc(-n2cnnn2)n2ncnc2n1` and report it. 3.71

How about this compound: `O=C(Nc1cccnc1)[C@H]1COC[C@H]2CN(C3CCCC3)C[C@H]21` 3.49

How about this compound: O=C1CCCCCN1Cc1nc(C2(c3ccc(F)cc3)CCOC2)no1 (stereo not drawn) 18.4
